Biological target: hMPV B2 F monomer (human metapneumovirus)
Test: ELISA on coated recombinant protein, OD 405 nm
Listed here: items and their measured EC50.

{"columns": ["BINDER", "EC50 (µg/mL)"],
 "data": [
  ["MPV486 (antibody, V domains shown) VH: EVQLVESGGHLVQSGGSLRLSCAASGFTFSNYILNWVRQAPGKGLEWISYITGGSSAIYYADSVKGRFTISRDDAKNSLYLQMNNLRAEDTAVYYCARSHGYDSSGYYYYFAMDVWGQGTTVTVSS VL: QSVLTQPPSASGTPGQRVTISCSGSNSNIESNTVNWYQQIPGTAPKLLIYSDNRRPSGVPDRFSGSKSGTSASLAISGLQSEDEADYYCAAWDDSLIGYVFGTGTKVTV", 0.11],
  ["MPV477 (antibody, V domains shown) VH: EVQLVQSGAEVKKPGASVEVSCKTSGYTFTDYYLHWVRQAPGQGLEWMGWINPRSGGTKYGQKFQGRVTMTRDTSISTAYMDLRGLRSDDTAVYYCARAPLLTVYAVAHRSGENRFDPWGQGTVTVSS VL: QPPSLSGAPGQTVTISCTGSGSNIGAGYDVNWYQCLPGTAPKLLMFDNSNRPSGVPDRFSGSRSGASASLAITGLQAEDEADYYCQSYDSGLSGWVFGGGTKLTVL", 0.21],
  ["MPV482 (antibody, V domains shown) VH: EVQLVQSGGGVVQPGRSLRLSCAASGFTFSSFAMHWVRQAPGKGLEWVALISDDGNNKYHADSVKGRFTISRDSSKNTLYLQMNSLRGEDTAVYYCARDGSVVGAAAHCDHWGQGTLVTVSS VL: SYELTQPPSVSVSPGQTARITCSGDALPNQCAYWYQQKPGLAPVLLIYKDKERPSGIPERFSGSISGTTVTLTISGVQAEDEADYYCQSSDSSSTVVFGGGTKLTVL", 0.2]
]}
